- Assay procedure: Selectivity index, ratio of TC50 for African green monkey Vero cells to IC50 for Vaccinia virus Copenhagen
- Type: toxicity
- Condition parameters: read-out: Selectivity Index
Reported metric: selectivity ratio
Reply: number alone, nothing else.

Completed entries (count: 6):
| Molecule | selectivity ratio |
| --- | --- |
| Nc1ccn(C[C@@H](CO)OCP(=O)(O)O)c(=O)n1 [CIDOFOVIR] | 12 |
| CC1(C)[C@@H]2CC[C@@]1(C)/C(=N/N=C1/NC(=S)CS1)C2 | 5 |
| COc1ccc(-c2csc(N/N=C3\C[C@H]4CC[C@]3(C)C4(C)C)n2)cc1 | 26 |
| Cc1ccc(/C=C2\S/C(=N\N=C3/C[C@H]4CC[C@]3(C)C4(C)C)NC2=O)cc1 (stereo in doubt) | 13 |
| CC1(C)[C@@H]2CC[C@@]1(C)/C(=N/Nc1nc(-c3ccc(Cl)cc3)cs1)C2 | 24 |
| CC1(C)[C@@H]2CC[C@@]1(C)/C(=N/N=C1/NC(=O)/C(=C/c3ccccc3)S1)C2 | 3 |

Q: For the molecule "CC1(C)[C@@H]2CC[C@@]1(C)/C(=N/NC(N)=S)C2" , report selectivity ratio.
Ans: 13

Q: For the molecule "CC1(C)[C@@H]2CC[C@@]1(C)/C(=N/Nc1nc(-c3ccc(Br)cc3)cs1)C2" , report selectivity ratio.
Ans: 32

Q: For the molecule "CCCCN1C(=O)CS/C1=N\N=C1/C[C@H]2CC[C@]1(C)C2(C)C" , report selectivity ratio.
Ans: 8

Q: For the molecule "C=CCN1C(=O)CS/C1=N\N=C1/C[C@H]2CC[C@]1(C)C2(C)C" , report selectivity ratio.
Ans: 11

Q: For the molecule "Cc1ccc(-c2csc(N/N=C3\C[C@H]4CC[C@]3(C)C4(C)C)n2)cc1" , report selectivity ratio.
Ans: 3

* * *

- Assay procedure: Cytotoxicity against African green monkey Vero cells after 4 days by neural red dye-based assay
- Type: cell-based
- Condition parameters: chlorocebus sabaeus, read-out: TC50
Rule: CC50 at 96 h below 80 µM gives y. Equal to or above 80 µM gives n.

# example entries with known answers
| Compound | Label class |
| --- | --- |
| COc1ccc(-c2csc(N/N=C3\C[C@H]4CC[C@]3(C)C4(C)C)n2)cc1 | n |
| CCCCN1C(=O)CS/C1=N\N=C1/C[C@H]2CC[C@]1(C)C2(C)C | y |
| Cc1ccc(/C=C2\S/C(=N\N=C3/C[C@H]4CC[C@]3(C)C4(C)C)NC2=O)cc1 (stereo in doubt) | n |
| CC(C)CCN1C(=O)CS/C1=N\N=C1/C[C@H]2CC[C@]1(C)C2(C)C | y |
| CC1(C)[C@@H]2CC[C@@]1(C)/C(=N/N=C1\SCC(=O)N1Cc1ccccc1)C2 | n |
| CC1(C)[C@@H]2CC[C@@]1(C)/C(=N/N=C1/NC(=S)CS1)C2 | y |
| CC1(C)[C@@H]2CC[C@@]1(C)/C(=N/Nc1nc(-c3ccc(Br)cc3)cs1)C2 | y |
| CC1(C)[C@@H]2CC[C@@]1(C)/C(=N/Nc1nc(-c3ccc(Cl)cc3)cs1)C2 | y |
| CC1(C)[C@@H]2CC[C@@]1(C)/C(=N/N=C1/NC(=O)/C(=C/c3ccccc3)S1)C2 | y |
| CC1(C)[C@@H]2CC[C@@]1(C)/C(=N/N=C1/NC(=O)CS1)C2 | n |

Turning to the following compound.
Q: # check: CC50 at 96 h < 80 µM for "C=CCN1C(=O)CS/C1=N\N=C1/C[C@H]2CC[C@]1(C)C2(C)C"
Ans: n

Origin of the recorded values: ChEMBL document CHEMBL4257560
